Origin of values: PubChem BioAssay AID1813

Hi there, I'd appreciate the recorded inhibition for every entry that follows.
Assay: 5' untranslated region of α-synuclein, MLPCN primary screen (AID 1813);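 note: H4 neuroglioblastoma cells stably carrying SNCA 5'UTR luciferase fusion; 0% = DMSO wells and 100% = positive control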
Settings: alpha-synuclein 5'UTR reporter, inhibitor activity; hits give high values; tested at 7.5 µM
Out of some 300,000 compounds screened, about 2,500 (0.83%) were called active. The full list was thinned out, with actives kept by preference.

Request: Report inhibition for `COC(=O)Cc1csc(Nc2c(C)n(C)n(-c3ccccc3)c2=O)n1` please.
Response: 14.1% (inactive)

Request: Report inhibition for Cc1cccc(N2CCN(S(=O)(=O)c3ccc4[nH]c(=O)c(=O)[nH]c4c3)CC2C)c1 (configuration not stated) please.
Response: 3.92% (inactive)

Request: Report inhibition for O=C(CN1C(=O)C2C3C=CC(C3)C2C1=O)Nc1nc(-c2ccccn2)cs1 (configuration not stated) please.
Response: 82.4% (active)

Request: Report inhibition for CCCCn1ccnc1C(=O)c1cccc(S(=O)(=O)N2c3ccccc3CC2C)c1 (configuration not stated) please.
Response: 4.82% (inactive)

Request: Report inhibition for `CNC(=O)C(=O)N/N=C/c1ccccn1` please.
Response: 10.9% (inactive)

Request: Report inhibition for CN1CCN(C2Cc3ccc(Cl)cc3Sc3ccc(F)cc32)CC1 (configuration not stated) please.
Response: 104% (active)

Request: Report inhibition for `CC(C)(C)c1cc(C(=O)N/N=C/c2ccc([N+](=O)[O-])s2)n[nH]1` please.
Response: 64% (active)

Request: Report inhibition for `COc1ccc(CC(=O)N/N=C(\C)c2ccccn2)cc1` please.
Response: 77.7% (active)

Request: Report inhibition for `Cc1csc2nc(O)c(C(=O)NCCN3CCOCC3)c(=O)n12` please.
Response: 0.0631% (inactive)

Request: Report inhibition for `Cc1ccc(S(=O)(=O)N/N=C(\c2ccccc2)C2CC2)cc1` please.
Response: -11.6% (inactive)

Request: Report inhibition for `Cc1ccccc1NCC(=O)N/N=C\c1ccc([N+](=O)[O-])s1` please.
Response: -43.2% (inactive)

Request: Report inhibition for `CN(C)c1ccc(/C=N\S(=O)(=O)c2ccccc2)cc1` please.
Response: -6.91% (inactive)

Request: Report inhibition for `Cc1ccc(C(=O)NCCNC(=O)c2cnccn2)cc1` please.
Response: -3.06% (inactive)

Request: Report inhibition for Cc1cn(C2C=CC(CO)O2)c(=O)[nH]c1=O (configuration not stated) please.
Response: -0.0254% (inactive)

Request: Report inhibition for `C=CCn1c(CCNC(=O)c2ccccc2F)nnc1SCC(=O)Nc1ccc(OC)cc1` please.
Response: -21.5% (inactive)

Request: Report inhibition for `Cc1nc2c(c(C)nn2-c2ccccc2)c(C)c1C` please.
Response: -0.524% (inactive)

Request: Report inhibition for O=C(C1CC1)N1N=C(c2ccc(Br)cc2)CC1(O)C(F)(F)F (configuration not stated) please.
Response: -12.3% (inactive)

Request: Report inhibition for `COc1ccc(C/C(C)=N/NC(=O)c2ccncc2)cc1` please.
Response: 6.51% (inactive)

Request: Report inhibition for O=C(Cc1ccccc1)N1N=C(c2ccncc2)CC1(O)C(F)(F)F (configuration not stated) please.
Response: 18.6% (inactive)

Request: Report inhibition for `CC[n+]1cc(C)ccc1/C=C/c1ccc(N(C)C)cc1` please.
Response: 90.6% (active)

Request: Report inhibition for `O=c1[nH]c(NCCO)nnc1Cc1ccc(Cl)cc1` please.
Response: 6.74% (inactive)

Request: Report inhibition for `Cc1ccc(-n2c(O)c(C=Nc3ccc(S(=O)(=O)Nc4ncccn4)cc3)c3ccccc3c2=O)cc1C` please.
Response: 13.1% (inactive)

Request: Report inhibition for `C/C(=N\NC(=O)c1ccccc1F)c1ccccn1` please.
Response: 83% (active)

Request: Report inhibition for `CCCCN(C)CCC(=O)Nc1ccc(Cl)cc1` please.
Response: -18.3% (inactive)

Request: Report inhibition for `COC(=O)Cc1csc(/N=C/c2c(O)n(-c3cccc(C(F)(F)F)c3)c(=O)c3ccccc23)n1` please.
Response: 81.8% (active)

Request: Report inhibition for `O=C(C[n+]1ccc2c(c1)nnn2-c1ccccc1)c1ccc(Cl)cc1` please.
Response: 9.87% (inactive)

Request: Report inhibition for COc1ccc(NC(=O)/C(Cl)=C(/Cl)S(=O)Cc2ccc(C)cc2)cn1 (configuration not stated) please.
Response: 106% (active)

Request: Report inhibition for `COc1ccc(Cc2nnc(N/N=C/c3ccccc3O)[nH]c2=O)cc1OC` please.
Response: 91.4% (active)

Request: Report inhibition for O=C(NCCN1C(=O)C2C3C=CC(C3)C2C1=O)Nc1ccccn1 (configuration not stated) please.
Response: -5.4% (inactive)

Request: Report inhibition for `CC(C)(C)NC(=O)NC(=O)CN1CCC(Cc2ccccc2)CC1` please.
Response: 17.3% (inactive)

Request: Report inhibition for `CC12CN3CCN(CC(C3)/C1=N\NC(=O)c1ccccc1N)C2` please.
Response: -83.3% (inactive)

Request: Report inhibition for `CCN(CC)c1ccc(/C=N/NC(=O)c2cnccn2)c(O)c1` please.
Response: 72.3% (active)

Request: Report inhibition for `C/C(CC(=O)Nc1ccc(N(C)C)cc1)=N\NC(=O)c1ccccc1F` please.
Response: -40.2% (inactive)

Request: Report inhibition for `CC(C)CC[n+]1ccn(C2=C([O-])c3ccccc3C(=O)/C2=N\S(=O)(=O)c2ccccc2)c1` please.
Response: -27.8% (inactive)

Request: Report inhibition for `COc1ccc(Br)c2c1C(=O)CC2` please.
Response: 8.26% (inactive)

Request: Report inhibition for `COc1ccc(CNC(=O)CSc2n[nH]c(N)n2)cc1OC` please.
Response: 4.62% (inactive)

Request: Report inhibition for `Cc1cc(C(=O)N/N=C/c2cc([N+](=O)[O-])cc(C)c2O)n[nH]1` please.
Response: -3% (inactive)

----------
Assay: 5' untranslated region of α-synuclein, MLPCN primary screen (AID 1813);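 note: H4 neuroglioblastoma cells stably carrying SNCA 5'UTR luciferase fusion; 0% = DMSO wells and 100% = positive control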
Conditions: alpha-synuclein 5'UTR reporter, inhibitor activity; tested at 7.5 µM
The campaign covered roughly 300,000 compounds. About 2,500 (0.83%) were called active. No stated cut-off is given here; in the data, active means inhibition above about 60%; inconclusive means no clear call, values can overlap the other calls; inactive means below that. The sample holds actives, similar compounds and a random draw of the others, so the mix is not that of the screen.
Your reply should match one of these outcome classes. active, inactive

Request: Returns: the outcome recorded for `CN(CC(=O)O)S(=O)(=O)c1ccc2oc3ccccc3c2c1` in this assay.
Response: inactive

Request: Returns: the outcome recorded for `COc1ccc(-c2nn(C)c(=O)c3ccccc23)cc1CNC(=O)C1CCCCC1` in this assay.
Response: inactive

Request: Returns: the outcome recorded for `CCOc1ccc2nc(N(CCCN(C)C)C(=O)c3ccc(C(=O)c4ccccc4)cc3)sc2c1` in this assay.
Response: active

Request: Returns: the outcome recorded for COc1ccc(C2CC(=O)Nc3cc(C)c(C)cc32)c(OC)c1OC (centres undefined) in this assay.
Response: inactive

Request: Returns: the outcome recorded for CCc1ccc2c(c1)C1(NN=C(c3ccccc3)S1)C(=O)N2 (centres undefined) in this assay.
Response: active

Request: Returns: the outcome recorded for `O=C(c1ccc(OC2CCN(Cc3ccccn3)CC2)cc1)N1CCCCCC1` in this assay.
Response: inactive

Request: Returns: the outcome recorded for `CCOc1cc(/C=N/NC(=O)CN2CCCCC2)ccc1O` in this assay.
Response: inactive

Request: Returns: the outcome recorded for `Nc1ccc2nn(-c3ccc(Cl)cc3)nc2c1` in this assay.
Response: inactive

Request: Returns: the outcome recorded for `Nc1nc(Nc2ccccc2F)nc(NC2CCCCC2)c1[N+](=O)[O-]` in this assay.
Response: inactive

Request: Returns: the outcome recorded for `CN(C)CCCN(C(=O)c1ccc(S(=O)(=O)N2CCCc3ccccc32)cc1)c1nc2ccc(F)cc2s1` in this assay.
Response: active

Request: Returns: the outcome recorded for COC(=O)c1ccc(NS(=O)(=O)c2cc3c4c(c2)C(C)C(=O)N4CCC3)cc1 (centres undefined) in this assay.
Response: inactive

Request: Returns: the outcome recorded for `CN(C)CCCN(C(=O)c1ccc(S(=O)(=O)N2CCCCCC2)cc1)c1nc2cc3c(cc2s1)OCCO3` in this assay.
Response: inactive

Request: Returns: the outcome recorded for `COc1ccc(S(=O)(=O)Nc2ccc3c(c2)OCO3)cc1Cl` in this assay.
Response: inactive

Request: Returns: the outcome recorded for `O=C(NCCOc1cccnc1)c1ccc(OC2CCN(Cc3ccccn3)CC2)cc1` in this assay.
Response: active

----------
Hi there, I'd appreciate the recorded inhibition for every entry that follows.
Test: 5' untranslated region of α-synuclein, MLPCN primary screen (AID 1813);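 note: H4 neuroglioblastoma cells stably carrying SNCA 5'UTR luciferase fusion; 0% = DMSO wells and 100% = positive control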
Conditions: alpha-synuclein 5'UTR reporter, inhibitor activity; hits give high values; tested at 7.5 µM
Hit rate of the full screen: of about 300,000 compounds, about 2,500 (0.83%) were called active. This is one part of a sample in which actives are shown more often than they occur.
Numbers only; they are read as %.

Request: Report inhibition for CC(=O)NN1C(=O)c2ccccc2NC1c1ccccc1 (stereo unspecified) please.
Response: 19.3

Request: Report inhibition for COc1ccc2nc(N3CCCC(O)C3)c(C#N)cc2c1 (stereo unspecified) please.
Response: -114

Request: Report inhibition for `Cc1ccc(/C=C2\CCn3c2nc2cc(C(=O)O)ccc2c3=O)c(C)c1` please.
Response: -20

Request: Report inhibition for COC(=O)C1(C)NC(c2ccccc2OC)C2C(=O)N(c3ccccc3)C(=O)C21 (stereo unspecified) please.
Response: 0.536

Request: Report inhibition for `Cc1ccccc1/[N+]([O-])=C/c1ccncc1` please.
Response: 5.11

Request: Report inhibition for `COc1ccc(-c2oc3ncn(Cc4ccco4)c(=N)c3c2-c2ccc(OC)cc2)cc1` please.
Response: 36

Request: Report inhibition for `CCCC1=Nc2cc(C(=O)NCc3ccco3)ccc2Sc2ccccc21` please.
Response: 87.6

Request: Report inhibition for `Oc1ccc(/C=N/Nc2ccc(C(F)(F)F)cn2)cc1O` please.
Response: -195

Request: Report inhibition for `COc1ccc(-c2nc(-c3ccccc3)no2)c(OC)c1` please.
Response: 68.9

Request: Report inhibition for COc1cc2c(cc1OC)C(C)N(S(=O)(=O)c1cnc(Cl)c(Cl)c1)CC2 (stereo unspecified) please.
Response: 36.4

Request: Report inhibition for `COc1ccc(NC(=O)Cn2ncn3c(cc4ccccc43)c2=O)c(OC)c1OC` please.
Response: 30
